# System: NCI-H1299
# Test Method Notes: Antiproliferative activity against human NCI-H1299 cells by MTT assay
# Assay type: functional, cell-based
pIC50: −log10 of the molar value.
Observed Property: pIC50

Use these answered entries as a reference point.
C/C(=C\[C@@H](O)[C@@H](C)O)[C@H]1CC[C@H]2C3=CC(=O)[C@H]4CC(=CC[C@H](O)C4)[C@H]3CC[C@]12C; < 4.70
CO[C@H](/C=C(\C)[C@H]1CC[C@H]2C3=CC(=O)[C@H]4CC(=CC[C@H](O)C4)[C@H]3CC[C@]12C)[C@H](C)O; < 4.70
C/C(=C\[C@H](O)[C@H](C)O)[C@H]1CC[C@H]2C3=CC(=O)[C@H]4CC(=CC[C@H](O)C4)[C@H]3CC[C@]12C [NEOCYCLOCITRINOL B]; < 4.70
C/C=C/[C@@H](O)[C@](C)(O)[C@H]1CC[C@H]2C3=CC(=O)[C@H]4CC(=CC[C@H](O)C4)[C@H]3CC[C@]12C; < 4.70

The measured pIC50 associated with `CC(=O)/C=C/[C@](C)(O)[C@H]1CC[C@H]2C3=CC(=O)[C@H]4CC(=CC[C@H](O)C4)[C@H]3CC[C@@]21C` reads < 4.70

The compound listed as `C/C=C/[C@H](O)[C@](C)(O)[C@H]1CC[C@H]2C3=CC(=O)[C@H]4CC(=CC[C@H](O)C4)[C@H]3CC[C@]12C` shows pIC50 equal to < 4.70

---

# Measurement Target: UniProt Q99835
# Sequence (Q99835 whole entry): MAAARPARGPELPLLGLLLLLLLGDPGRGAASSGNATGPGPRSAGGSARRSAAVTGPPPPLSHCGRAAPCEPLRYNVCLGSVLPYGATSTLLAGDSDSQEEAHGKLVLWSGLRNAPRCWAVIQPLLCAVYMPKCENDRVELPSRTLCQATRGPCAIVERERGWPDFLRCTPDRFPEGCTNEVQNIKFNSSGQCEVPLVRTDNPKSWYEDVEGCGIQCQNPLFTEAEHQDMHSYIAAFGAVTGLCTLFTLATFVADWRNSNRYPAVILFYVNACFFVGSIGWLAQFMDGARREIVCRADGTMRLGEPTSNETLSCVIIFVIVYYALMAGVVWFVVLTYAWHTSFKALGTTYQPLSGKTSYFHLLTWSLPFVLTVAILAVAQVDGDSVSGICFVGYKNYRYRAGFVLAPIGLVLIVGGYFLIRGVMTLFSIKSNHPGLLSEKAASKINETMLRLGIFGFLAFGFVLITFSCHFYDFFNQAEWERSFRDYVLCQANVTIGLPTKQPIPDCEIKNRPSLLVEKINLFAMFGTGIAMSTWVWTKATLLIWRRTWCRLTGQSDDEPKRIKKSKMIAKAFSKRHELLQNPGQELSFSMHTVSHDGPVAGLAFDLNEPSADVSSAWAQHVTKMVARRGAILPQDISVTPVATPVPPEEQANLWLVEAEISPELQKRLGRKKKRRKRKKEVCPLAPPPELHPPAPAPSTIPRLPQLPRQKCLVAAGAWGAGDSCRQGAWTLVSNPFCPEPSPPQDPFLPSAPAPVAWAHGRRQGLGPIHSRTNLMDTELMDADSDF
# Test Method Notes: Agonist activity at SMO receptor (unknown origin)
Observed Property: pEC50
Scale for pEC50: -log10 of concentration given in mol/L; no unit attached.

Per the record, `c1ccc2c(Oc3nc(Nc4ccc(N5CCOCC5)cc4)c4ncn(C5CCCCC5)c4n3)cccc2c1` has pEC50 of 6.00

---

# Tested on: NCI-H1299
# Test Method Notes: Antiproliferative activity against human NCI-H1299 cells by MTT assay
# Assay type: functional, cell-based
pIC50: −log10 of the molar value.
Observed Property: pIC50

Below are worked cases with known answers.
CC(=O)OC(C)C(O)/C=C(\C)[C@H]1CC[C@H]2C3=CC(=O)[C@H]4CC(=CC[C@H](O)C4)[C@H]3CC[C@]12C (stereo partly drawn); < 4.70
CC(=O)/C=C/[C@@](C)(O)[C@H]1CC[C@H]2C3=CC(=O)[C@H]4CC(=CC[C@H](O)C4)[C@H]3CC[C@@]21C; < 4.70

Attention now shifts to the item below.
The compound C/C(=C\[C@@H](O)[C@H](C)O)[C@H]1CC[C@H]2C3=CC(=O)[C@H]4CC(=CC[C@H](O)C4)[C@H]3CC[C@]12C [NEOCYCLOCITRINOL C] showed pIC50 equal to < 4.70

---

# System: A-431
# Test Method Notes: Antiproliferative activity against human A-431 cells by MTT assay
# Assay type: functional, cell-based
Observed Property: IC50

Worked cases, IC50 given:
C/C=C/[C@H](OC(C)=O)[C@](C)(O)[C@H]1CC[C@H]2C3=CC(=O)[C@H]4CC(=CC[C@H](O)C4)[C@H]3CC[C@]12C; > 20 µM
CC(=O)OC(C)C(O)/C=C(\C)[C@H]1CC[C@H]2C3=CC(=O)[C@H]4CC(=CC[C@H](O)C4)[C@H]3CC[C@]12C (stereo partly drawn); > 20 µM

Let us move to another entry and its IC50.
Entry `C/C(=C\[C@H](O)[C@@H](C)O)[C@H]1CC[C@H]2C3=CC(=O)[C@H]4CC(=CC[C@H](O)C4)[C@H]3CC[C@]12C` , IC50 reported as > 20 µM

---

# System: A549
# Test Method Notes: Antiproliferative activity against human A549 cells by MTT assay
# Format: functional, cell-based
Observed Property: IC50

Recorded results for 10 compounds are shown here.
CC(=O)OC(/C=C(\C)[C@H]1CC[C@H]2C3=CC(=O)[C@H]4CC(=CC[C@H](O)C4)[C@H]3CC[C@]12C)C(C)O (some centres not stated); > 20 µM
CC(=O)OC(C)C(O)/C=C(\C)[C@H]1CC[C@H]2C3=CC(=O)[C@H]4CC(=CC[C@H](O)C4)[C@H]3CC[C@]12C (some centres not stated); > 20 µM
CC(=O)/C=C/[C@@](C)(O)[C@H]1CC[C@H]2C3=CC(=O)[C@H]4CC(=CC[C@H](O)C4)[C@H]3CC[C@@]21C; > 20 µM
C/C(=C\C(=O)C(C)O)[C@H]1CC[C@H]2C3=CC(=O)[C@H]4CC(=CC[C@H](O)C4)[C@H]3CC[C@]12C (some centres not stated); > 20 µM
C/C(=C\[C@@H](O)[C@@H](C)O)[C@H]1CC[C@H]2C3=CC(=O)[C@H]4CC(=CC[C@H](O)C4)[C@H]3CC[C@]12C; > 20 µM
C/C(=C\C(=O)O)[C@H]1CC[C@H]2C3=CC(=O)[C@H]4CC(=CC[C@H](O)C4)[C@H]3CC[C@]12C; > 20 µM
C/C(=C\[C@@H](O)[C@H](C)O)[C@H]1CC[C@H]2C3=CC(=O)[C@H]4CC(=CC[C@H](O)C4)[C@H]3CC[C@]12C; > 20 µM
CO[C@@H](/C=C(\C)[C@H]1CC[C@H]2C3=CC(=O)[C@H]4CC(=CC[C@H](O)C4)[C@H]3CC[C@]12C)[C@@H](C)O; > 20 µM
C/C(=C/[C@H](O)[C@H](C)O)[C@H]1CC[C@H]2C3=CC(=O)[C@H]4CC(=CC[C@H](O)C4)[C@H]3CC[C@]12C; > 20 µM
C/C(=C\[C@H](O)[C@@H](C)O)[C@H]1CC[C@H]2C3=CC(=O)[C@H]4CC(=CC[C@H](O)C4)[C@H]3CC[C@]12C; > 20 µM

Kindly note: A549, `C/C=C/[C@H](O)[C@](C)(O)[C@H]1CC[C@H]2C3=CC(=O)[C@H]4CC(=CC[C@H](O)C4)[C@H]3CC[C@]12C` , IC50 value reported: > 20 µM

The reported IC50 value, A549, for `C/C=C/[C@H](OC(C)=O)[C@](C)(O)[C@H]1CC[C@H]2C3=CC(=O)[C@H]4CC(=CC[C@H](O)C4)[C@H]3CC[C@]12C` reads > 20 µM

---

# Tested on: NCI-H1299
# Test Method Notes: Antiproliferative activity against human NCI-H1299 cells by MTT assay
# Format: functional, cell-based
Reported values of IC50 for individual entries

Solved entries (count: 2):
COC(/C=C(\C)[C@H]1CC[C@H]2C3=CC(=O)[C@H]4CC(=CC[C@H](O)C4)[C@H]3CC[C@]12C)C(C)O (stereo partly drawn); > 20 µM
CC(=O)OC(/C=C(\C)[C@H]1CC[C@H]2C3=CC(=O)[C@H]4CC(=CC[C@H](O)C4)[C@H]3CC[C@]12C)C(C)O (stereo partly drawn); > 20 µM

Proceeding to the next molecule to report its IC50.
IC50 in this record for `C/C=C/[C@H](OC(C)=O)[C@](C)(O)[C@H]1CC[C@H]2C3=CC(=O)[C@H]4CC(=CC[C@H](O)C4)[C@H]3CC[C@]12C` : > 20 µM

---

# System: A-431
# Test Method Notes: Antiproliferative activity against human A-431 cells by MTT assay
# Assay type: functional, cell-based
pIC50: −log10 of the molar value.
Observed Property: pIC50

Worked cases, answers included:
C/C(=C\C(=O)C(C)O)[C@H]1CC[C@H]2C3=CC(=O)[C@H]4CC(=CC[C@H](O)C4)[C@H]3CC[C@]12C (stereo partly drawn); < 4.70
CO[C@@H](/C=C(\C)[C@H]1CC[C@H]2C3=CC(=O)[C@H]4CC(=CC[C@H](O)C4)[C@H]3CC[C@]12C)[C@@H](C)O; < 4.70

get_value(item= COC(/C=C(\C)[C@H]1CC[C@H]2C3=CC(=O)[C@H]4CC(=CC[C@H](O)C4)[C@H]3CC[C@]12C)C(C)O (stereo partly drawn) , readout=pIC50) returns < 4.70

Measured values drawn from ChEMBL document CHEMBL5226369 for this set.
